Test system: Rattus norvegicus
Test: Secretion of phospholipid in Bile Fistula rats after the iv administration of compound, expressed as the residual secretion rate i
Format: ADME, organism-based
Conditions: in vivo
Value Type: Rs

CC(CCC(=O)N1CCC[C@H]1C(=O)O)C1CC[C@H]2[C@@H]3[C@@H](O)CC4C[C@H](O)CC[C@]4(C)[C@H]3CC[C@]12C (stereo partly specified) = 0.09 µM/min/kg
CC(CCC(=O)N1CCC[C@@H]1C(=O)O)C1CC[C@H]2[C@@H]3C[C@H](O)C4C[C@H](O)CC[C@]4(C)[C@H]3CC[C@]12C (stereo partly specified) = 0.21 µM/min/kg

Okay, next one:
Using known records, supply Rs for CO[C@H]1C[C@H](C(=O)O)N(C(=O)CCC(C)C2CC[C@H]3[C@@H]4[C@@H](O)CC5C[C@H](O)CC[C@]5(C)[C@H]4CC[C@]23C)C1 (stereo partly specified)
0.12 µM/min/kg
